meta.source: the NIST ThermoML archive (doi:10.1007/s10765-013-1539-3)

protocol-text: wn = mass fraction of the nth substance listed
settings: 400 K; 100 kPa; Gas; Steady Flow; w1 = 0.5
Could you please report measured binary diffusion coefficient for the items listed next?
Field format: number, assumed m2/s, no unit text.

-- ask Which binary diffusion coefficient is reported for this compound? [HH] [hydrogen] + N#N
-- reply 0.000131

-- ask Which binary diffusion coefficient is reported for this compound? [HH] [hydrogen] + C
-- reply 0.000124

-- ask Which binary diffusion coefficient is reported for this compound? [HH] [hydrogen] + CC
-- reply 9.5e-05

-- ask Which binary diffusion coefficient is reported for this compound? [HH] [hydrogen] + CCC
-- reply 7.4e-05
